Cited source: patent US20230035798A1

biological target: T1, human LIGHT (TNFSF14), full length, membrane-bound (214E allele) (human, UniProt O43557 1-240); test: DcR3-His (1 nM) competition, EL4-LIGHT, flow cytometry; 1.23 nM
T1 construct: also called membrane LIGHT; human membrane LIGHT
T1 sequence (O43557 whole entry K214E): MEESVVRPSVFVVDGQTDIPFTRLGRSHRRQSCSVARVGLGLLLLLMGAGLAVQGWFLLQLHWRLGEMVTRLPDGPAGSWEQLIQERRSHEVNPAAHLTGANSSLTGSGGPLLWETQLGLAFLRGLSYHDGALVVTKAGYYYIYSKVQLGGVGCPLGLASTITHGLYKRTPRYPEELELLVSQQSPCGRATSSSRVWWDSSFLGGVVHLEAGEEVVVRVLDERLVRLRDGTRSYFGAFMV
observable: DcR3-His binding, % of irrelevant mAb (%)
One number for each entry, in %.

# binder, DcR3-His binding, % of irrelevant mAb, %
measured = [
    ("3D12 (antibody, human IgG4, V domains shown, chimeric: mouse variable domains on human IgG4 HC (S-to-P and L-to-E at 248) and human CL; also called Parental 3D12; 3D12 chimeric) VH: QVQLQQPGAELVRPGASVTLSCKASDYTFTDSEIHWVKQTPVHGLEWIGEIDPETGGTAYNQKFKGKATLTADKSSSTAYMELRSLTSEDSAVYYCSRETDYFFDYWGQGTTLTVSS VL: DIQMTQSPASLSASVGETVTITCGASENIYGALNWYQRKQGKSPQLLIYGATNLADGMSSRFSGSGSGRQYSLKISSLHPDDVATYYCQNVLSTPWTFGGGTKLEIKR", 72.8),
]

GET /values?readout=DcR3-His binding, % of irrelevant mAb&item= 3E09 (antibody, V domains shown, chimeric human IgG4 (S-to-P, L-to-E at 248), human CL; also called Parental 3E09) VH: EVQLVESGGGLVKPGGSLKLSCEASGFTFSDYYMYWVRQTPEKRLEWVAAIGDGGIYTYYADTVKGRFTISRDNAKNILYLQMSSLKSNDTAMYYCARGTGDGFAYWGQGTLVTVS VL: DIVLTQSPASLAVSLGQRATISCRASESVDSYGNSFMHWYQQKPGQPPKLLIYLASNLESGVPARFSGSGSRTDFTLTIDPVEADDAATYYCQQNNEDPYTFGGGTKLEIK
66.9
